growth inhibition listing for selected molecules.
system: DIPGX37 (H3.3 K27M diffuse intrinsic pontine glioma line); experiment: growth inhibition (% activity, log2 RLU normalised to DMSO / staurosporine); higher = more growth inhibition; conditions: 33 µM
Write down the numeric answer in % and omit the unit.

molecule="C[C@H]1O[C@H](O[C@H]2[C@H](O)[C@@H](O)[C@@H](O[C@H]3[C@H](O)[C@@H](O)C(O)O[C@@H]3CO)O[C@@H]2CO)[C@H](O)[C@@H](O)[C@@H]1N[C@H]1C=C(CO)[C@@H](O)[C@H](O)[C@H]1O (stereo partly drawn)" assayed_system=DIPGX37 assay_metric="growth inhibition" endpoint_unit=% test_value=-1.58

--- query ---
Request: Fill: growth inhibition (DIPGX37) for this molecule `Cc1onc(-c2c(Cl)cccc2Cl)c1C(=O)N[C@@H]1C(=O)N2[C@@H]1SC(C)(C)[C@@H]2C(=O)O`
Response: 1.6

Source of measurements: the supplement of paper PMC8253809
